Value source: patent US20030148958A1

# measured-target: T1, corticotropin releasing factor 2 receptor
# T1 sequence (Q13324 whole entry, species assumed, looked up): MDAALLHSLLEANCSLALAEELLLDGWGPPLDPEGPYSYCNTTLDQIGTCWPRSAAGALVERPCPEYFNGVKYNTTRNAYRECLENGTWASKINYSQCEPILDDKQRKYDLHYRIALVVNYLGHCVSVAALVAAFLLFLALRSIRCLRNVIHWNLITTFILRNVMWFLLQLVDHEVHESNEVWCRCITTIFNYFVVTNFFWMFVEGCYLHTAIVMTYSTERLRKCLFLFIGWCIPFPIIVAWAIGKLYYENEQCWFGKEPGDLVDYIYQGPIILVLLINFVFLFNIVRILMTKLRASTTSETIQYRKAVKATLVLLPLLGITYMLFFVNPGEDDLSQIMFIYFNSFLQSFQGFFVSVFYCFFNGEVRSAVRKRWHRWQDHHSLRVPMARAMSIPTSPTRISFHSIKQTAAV
# experiment-description: cell-based or functional assay
Ends that are not written are not given here.
Would you mind telling me the reported CRF2R Emax of each entry?
Form entry: enter the amount, then its unit.

Reference set (2 entries):
binder	CRF2R Emax
SQEPPISLDLPTYLLREVLEMTKADQLAQQAHSNRKLLDIA-NH2 [SEQ ID NO 106]	6.1%
ZGPPISIDLPDYLLRKMIEIEKQEKEKQQAANNRLLLDTI (C-terminal amide) [SEQ ID NO 54]	11%

Continue with the binder presented below.
Request: Give the value of CRF2R Emax reported for the following: ZGPPISIDLPLILLRKMIEIEKQEKEKQQAANNRLLLDTI (C-terminal amide) [SEQ ID NO 194]
Result: 96%
